Data credit: ChEMBL document CHEMBL1145020

Listing: pIC50 of selected molecules
Test system: SW-620
Test: Concentration required to inhibit growth of human carcinoma colon (SW620) cell line
Format: functional, cell-based
pIC50: −log10 of the molar value.
endpointLabel: pIC50

- molecule: "N#Cc1cnc2ccc(NC(=O)/C=C/CN3CCOCC3)cc2c1Nc1ccc(F)c(Cl)c1"
  endpointLabel: "pIC50"
  obsValue: 5.20
- molecule: "COc1cc2ncc(C#N)c(Nc3ccc(F)c(Cl)c3)c2cc1NC(=O)/C=C/CN1CCOCC1"
  endpointLabel: "pIC50"
  obsValue: 5.18
- molecule: "CCN(CC)C(C)/C=C/C(=O)Nc1cc2c(Nc3ccc(F)c(Cl)c3)c(C#N)cnc2cc1OC (configuration not stated)"
  endpointLabel: "pIC50"
  obsValue: 6.06
- molecule: "COCC#CC(=O)Nc1ccc2ncc(C#N)c(Nc3cccc(Br)c3)c2c1"
  endpointLabel: "pIC50"
  obsValue: 6.28
- molecule: "COc1cc2ncc(C#N)c(Nc3cccc(Br)c3)c2cc1NC(=O)C#CCN(C)C"
  endpointLabel: "pIC50"
  obsValue: 6.52
- molecule: "COc1cc2ncc(C#N)c(Nc3cccc(Br)c3)c2cc1NC(=O)/C=C/CN(C)C"
  endpointLabel: "pIC50"
  obsValue: 5.93
- molecule: "C=CC(=O)Nc1ccc2ncc(C#N)c(Nc3cccc(Br)c3)c2c1"
  endpointLabel: "pIC50"
  obsValue: 5.47
